# EC50 listing for each entry below
Target: Transient receptor potential cation channel subfamily V member 1 (Homo sapiens)
Sequence (Q8NER1 whole entry): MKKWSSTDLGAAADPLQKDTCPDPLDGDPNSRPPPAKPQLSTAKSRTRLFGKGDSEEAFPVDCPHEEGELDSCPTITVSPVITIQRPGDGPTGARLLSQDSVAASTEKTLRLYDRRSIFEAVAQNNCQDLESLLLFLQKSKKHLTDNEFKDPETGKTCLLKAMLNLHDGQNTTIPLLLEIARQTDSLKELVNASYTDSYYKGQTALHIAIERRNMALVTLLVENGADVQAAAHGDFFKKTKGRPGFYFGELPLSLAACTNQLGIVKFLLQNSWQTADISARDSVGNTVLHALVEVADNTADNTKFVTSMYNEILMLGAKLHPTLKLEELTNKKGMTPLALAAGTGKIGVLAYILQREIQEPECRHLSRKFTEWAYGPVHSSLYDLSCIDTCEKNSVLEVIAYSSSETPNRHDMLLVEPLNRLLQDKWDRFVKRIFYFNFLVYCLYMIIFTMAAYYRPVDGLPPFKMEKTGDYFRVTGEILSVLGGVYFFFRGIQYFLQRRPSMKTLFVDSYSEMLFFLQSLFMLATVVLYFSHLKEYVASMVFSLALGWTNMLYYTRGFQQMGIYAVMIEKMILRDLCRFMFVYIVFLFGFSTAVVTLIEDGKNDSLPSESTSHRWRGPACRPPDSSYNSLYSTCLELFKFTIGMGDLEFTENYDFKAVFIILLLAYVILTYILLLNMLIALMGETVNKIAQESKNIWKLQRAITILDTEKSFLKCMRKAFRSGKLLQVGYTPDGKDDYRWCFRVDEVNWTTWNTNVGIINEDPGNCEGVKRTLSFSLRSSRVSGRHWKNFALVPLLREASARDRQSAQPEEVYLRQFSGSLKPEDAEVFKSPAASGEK
Test: Agonist activity at TRPV1 expressed in CHO cells

Example entries begin here.
*Q* Returns the measured EC50 for the input molecule. Input: FC(F)(F)c1ccc(-c2cc(Nc3ccc4c(c3)OCCO4)ncn2)cc1
*A* > 4 µM

*Q* Returns the measured EC50 for the input molecule. Input: CC(C)(C)c1ccc(-c2nccc(Nc3ccc4c(c3)OCCO4)n2)cc1
*A* > 4 µM

*Q* Returns the measured EC50 for the input molecule. Input: CC(C)(C)c1ccc(-c2cc(Nc3ccc4c(c3)OCCO4)cnn2)cc1
*A* > 4 µM

*Q* Returns the measured EC50 for the input molecule. Input: CC(C)(C)c1ccc(-c2ncnc(Nc3ccc4c(c3)OCCO4)n2)cc1
*A* > 4 µM

Others:
*Q* Returns the measured EC50 for the input molecule. Input: CC(C)(C)c1ccc(-c2ccnc(Nc3ccc4c(c3)OCCO4)n2)cc1
*A* > 4 µM

----------
Test: Bioavailability in Sprague-Dawley rat at 5 mg/kg, po
Type: ADME, organism-based
Conditions: in vivo
Property label: bioavailability (%)
Numeric answer only, unit % assumed.

*Q* Returns the measured bioavailability for the input compound. Input: FC(F)(F)c1ccc(-c2cc(Nc3ccc4cccnc4c3)ncn2)cc1
*A* 6

*Q* Returns the measured bioavailability for the input compound. Input: FC(F)(F)c1ccc(-c2cc(Oc3ccc4cccnc4c3)ncn2)cc1
*A* 31

*Q* Returns the measured bioavailability for the input compound. Input: CC(C)(C)c1ccc(-c2cc(Nc3ccc4cccnc4c3)ncn2)cc1
*A* 5

----------
# half-life listing for each entry below
Assay: Half life in Sprague-Dawley rat at 2 mg/kg, iv
Assay type: ADME, organism-based
Set-up: dose 2 mg/kg, route intravenous
Conditions: in vivo
Numeric answer only, unit h assumed.

*Q* Returns the measured half-life for the input compound. Input: FC(F)(F)c1ccc(-c2cc(Nc3ccc4cccnc4c3)ncn2)cc1
*A* 1.7

Others:
*Q* Returns the measured half-life for the input compound. Input: FC(F)(F)c1ccc(-c2cc(Oc3ccc4cccnc4c3)ncn2)cc1
*A* 2.8

*Q* Returns the measured half-life for the input compound. Input: CC(C)(C)c1ccc(-c2cc(Nc3ccc4cccnc4c3)ncn2)cc1
*A* 1.6

----------
# AUC(0-inf) listing for each entry below
Assay: AUC (0-infinity) in Sprague-Dawley rat at 2 mg/kg, iv
Assay type: ADME, organism-based
Design: time infinity, dose 2 mg/kg, route intravenous
Settings: plasma
Numeric answer only, unit ng·h/mL assumed.

Example entries begin here.
*Q* Returns the measured AUC(0-inf) for the input compound. Input: CC(C)(C)c1ccc(-c2cc(Nc3ccc4cccnc4c3)ncn2)cc1
*A* 340

*Q* Returns the measured AUC(0-inf) for the input compound. Input: FC(F)(F)c1ccc(-c2cc(Nc3ccc4cccnc4c3)ncn2)cc1
*A* 320

// switching to the query compound
*Q* Returns the measured AUC(0-inf) for the input compound. Input: FC(F)(F)c1ccc(-c2cc(Oc3ccc4cccnc4c3)ncn2)cc1
*A* 1590

----------
# Vd listing for each entry below
Assay: Volume of distribution at steady state in Sprague-Dawley rat at 2 mg/kg, iv
Assay type: ADME, organism-based
Set-up: dose 2 mg/kg, route intravenous
Details: in vivo, read-out: Vss
Numeric answer only, unit L/kg assumed.

Example entries begin here.
*Q* Returns the measured Vd for the input compound. Input: FC(F)(F)c1ccc(-c2cc(Oc3ccc4cccnc4c3)ncn2)cc1
*A* 3

*Q* Returns the measured Vd for the input compound. Input: CC(C)(C)c1ccc(-c2cc(Nc3ccc4cccnc4c3)ncn2)cc1
*A* 3.1

Others:
*Q* Returns the measured Vd for the input compound. Input: FC(F)(F)c1ccc(-c2cc(Nc3ccc4cccnc4c3)ncn2)cc1
*A* 3
